Test system: Caco-2
Test: cell viability relative to DMSO; higher = less toxic
Conditions: 72 h; 100 nM
Where a name gives a salt, the structure may show the parent alone.
Collected cell viability values appear next to each entry.
The reply should be a number in %, with the unit left off.

>  <compound>
CCn1c(=O)[nH]c2ccccc21 [1-EBIO]

>  <unit string>
%

>  <number>
98

$$$$

Entry COc1cc2c(=O)c(-c3ccc(O)cc3)coc2cc1O [glycitein] : reported cell viability = ?
101

And then C[C@H](N)Cc1c[nH]cn1 [alpha-methylhistamine-dihydrobromide-(S)-(+)] , what is it?
95.2

And then C=C(C)[C@@H]1CC=C(CO)CC1 [perillyl-alcohol] , what is it?
102

And then C=C(C)[C@@H]1[C@H]2OC(=O)[C@@H]1[C@]1(O)C[C@H]3O[C@]34C(=O)O[C@H]2[C@]14C [picrotoxinin] , what is it?
99.2

---

Tested on: Vero E6
Experiment: cell viability relative to DMSO; higher = less toxic
Conditions: 72 h; 1000 nM
measurement kind: cell viability (%)
The reply should be a number in %, with the unit left off.

>  <compound>
CC1(C)O[C@@H]2[C@@H](CO[C@@]3(COS(N)(=O)=O)OC(C)(C)O[C@@H]23)O1 [topiramate]

>  <unit string>
%

>  <cell viability>
97.7

$$$$
>  <compound>
C[C@]12CCC(=O)C=C1CC[C@@H]1[C@@H]2CC[C@@]2(C)[C@H]1CC[C@]2(C)O

>  <unit string>
%

>  <cell viability>
91.9

$$$$
>  <compound>
Oc1ccc(CC2NCCc3cc(O)c(O)cc32)cc1 (centres undefined)

>  <unit string>
%

>  <cell viability>
100

$$$$
>  <compound>
Cc1c(O)c(=O)n(-c2ccccc2)n1C [4-hydroxy-phenazone]

>  <unit string>
%

>  <cell viability>
103

$$$$

Entry CC(CN(C)C)CN1c2ccccc2CCc2ccccc21 (centres undefined) : reported cell viability = ?
96.8

And then O=C(NOCC1CC1)c1ccc(F)c(F)c1Nc1ccc(I)cc1Cl , what is it?
65.9

And then COc1ccccc1N1CCN(CCn2c(=O)[nH]c3c([nH]c4ccccc43)c2=O)CC1 , what is it?
99.4

And then CCC1=C[C@@H]2CN(C1)Cc1c([nH]c3ccccc13)[C@@](C(=O)OC)(c1cc3c(cc1OC)N(C)[C@H]1[C@@](O)(C(=O)OC)[C@H](OC(C)=O)[C@]4(CC)C=CCN5CC[C@]31[C@@H]54)C2 , what is it?
54

And then Cc1nc(Nc2cnn(C3CCNCC3)c2)nc2c1N(C)C(=O)c1cc3ccccc3cc1N2C , what is it?
98.5

---

Collected drug sensitivity score values appear next to each entry.
System: Calu-3
Assay: drug sensitivity score (DSS) for viability; higher = more toxic; extreme values may be limits of the assay
Settings: 72 h
I only need the number, thanks.

Here are 4 compounds together with their reported answers.
>  <compound>
CCC(=O)O[C@]1(C(=O)CCl)[C@@H](C)C[C@H]2[C@@H]3CCC4=CC(=O)C=C[C@]4(C)[C@@]3(F)[C@@H](O)C[C@@]21C [clobetasol-propionate]

>  <number>
0

$$$$
>  <compound>
O=C(NC1CCC1)c1ccc(C#Cc2cccc(F)c2)nc1

>  <number>
0

$$$$
>  <compound>
COc1ccc(-c2ccc3cc(C(=O)O)ccc3c2)cc1C12CC3CC(CC(C3)C1)C2

>  <number>
0.1

$$$$
>  <compound>
COc1cc(COc2cc(N)c(Cl)cc2C(=O)CCC2CCN(CCNS(C)(=O)=O)CC2)cc(OC)c1

>  <number>
0

$$$$

Entry O=c1[nH]c2cc(C(F)(F)F)c(N3CCOCC3)cc2n(CP(=O)(O)O)c1=O : reported drug sensitivity score = ?
0

And then O=[N+]([O-])/N=C1\NCCN1Cc1ccc(Cl)nc1 , what is it?
0

And then Cc1ccc(-c2nn(C(C)(C)CNC(=O)c3ncccc3C)c3ncnc(N)c23)cc1 , what is it?
2.8

And then C[S+](CC[C@H](N)C(=O)O)C[C@H]1O[C@@H](n2cnc3c(N)ncnc32)[C@H](O)[C@@H]1O (stereo partly drawn) , what is it?
0

And then Cc1c(O)c(=O)n(-c2ccccc2)n1C [4-hydroxy-phenazone] , what is it?
0

And then NS(=O)(=O)c1cc2c(cc1Cl)N=CNS2(=O)=O [chlorothiazide] , what is it?
0

---

System: Caco-2
Test: cell viability relative to DMSO; higher = less toxic
Conditions: 72 h; 1 nM
measurement kind: cell viability (%)
The reply should be a number in %, with the unit left off.

>  <molecule>
Cc1nnc(C(C)C)n1C1C[C@H]2CC[C@@H](C1)N2CC[C@H](NC(=O)C1CCC(F)(F)CC1)c1ccccc1 (stereo in doubt) [maraviroc]

>  <target>
Caco-2

>  <cell viability / %>
101

$$$$
>  <molecule>
O/N=C/c1cc[n+](COC[n+]2ccc(/C=N/O)cc2)cc1 [obidoxime]

>  <target>
Caco-2

>  <cell viability / %>
94.5

$$$$
>  <molecule>
O=C(NCCNCC(O)COc1ccc(O)cc1)N1CCOCC1 (centres undefined) [xamoterol]

>  <target>
Caco-2

>  <cell viability / %>
95.8

$$$$

Pending molecule:
Any idea what cell viability came out for O=[N+]([O-])O[C@@H]1CO[C@H]2[C@@H]1OC[C@@H]2O [isosorbide-mononitrate] on Caco-2?
100

---

Test system: Caco-2
Experiment: cell viability relative to DMSO; higher = less toxic
Conditions: 72 h; 1 nM
Collected cell viability values appear next to each entry.
The reply should be a number in %, with the unit left off.

Here are 3 compounds together with their reported answers.
>  <compound>
CNC(=O)[C@H](Cc1ccccc1)NC(=O)[C@H](CC(C)C)[C@H](CSc1cccs1)C(=O)NO

>  <measurement kind>
cell viability

>  <number>
94.1

$$$$
>  <compound>
CC1(C)O[C@@H]2[C@@H](CO[C@@]3(COS(N)(=O)=O)OC(C)(C)O[C@@H]23)O1 [topiramate]

>  <measurement kind>
cell viability

>  <number>
93.2

$$$$
>  <compound>
O=c1c(O)c(-c2ccc(O)cc2)oc2cc(O)cc(O)c12

>  <measurement kind>
cell viability

>  <number>
98.5

$$$$

Pending compound:
Any idea what cell viability came out for Cc1cc(S(=O)(=O)O)c2c(C)ccc(C(C)C)cc1-2 [sodium-gualenate] on Caco-2?
90.8

---

Test system: HepG2
Test: drug sensitivity score (DSS) for viability; higher = more toxic; extreme values may be limits of the assay
Conditions: 72 h
Collected drug sensitivity score values appear next to each entry.
I only need the number, thanks.

>  <compound>
Cc1cn2c(N)c(Cl)cc(C(=O)NCC3CCN(CC(C)C)CC3)c2n1

>  <measurement kind>
drug sensitivity score

>  <number>
0.5

$$$$
>  <compound>
O=C1CC2(CCCC2)CC(=O)N1CCNC[C@H]1COc2ccccc2O1

>  <measurement kind>
drug sensitivity score

>  <number>
0

$$$$
>  <compound>
c1cn2cc(-c3ccc4cn[nH]c4c3)nc(Nc3ccc(N4CCOCC4)cc3)c2n1 [GS-9973]

>  <measurement kind>
drug sensitivity score

>  <number>
0

$$$$
>  <compound>
CCCC(O)C(CC)CO (centres undefined) [2-ethyl-1,3-hexanediol]

>  <measurement kind>
drug sensitivity score

>  <number>
0

$$$$
>  <compound>
C[C@@H]1NC(C)(C)CO[C@@]1(O)c1cccc(Cl)c1 [radafaxine]

>  <measurement kind>
drug sensitivity score

>  <number>
0

$$$$

Entry Cc1ccc(Oc2ccccc2-c2csc(N=C3NCCCN3)n2)c(C)c1 [abafungin] : reported drug sensitivity score = ?
2.3

And then CCN1CCN(c2ccc(Nc3cc(N(C)C(=O)Nc4c(Cl)c(OC)cc(OC)c4Cl)ncn3)cc2)CC1 [NVP-BGJ398] , what is it?
1.1

And then COc1cc2c(=O)c(-c3ccc(O)cc3)coc2cc1O [glycitein] , what is it?
0

And then O=C(O)C1=CCCN(CCON=C(c2ccccc2)c2ccccc2)C1 [NNC-711] , what is it?
0

---

Test system: Caco-2
Test: cell viability relative to DMSO; higher = less toxic
Conditions: 72 h; 1 nM
Collected cell viability values appear next to each entry.
The reply should be a number in %, with the unit left off.

Here are 5 molecules together with their reported answers.
>  <molecule>
Oc1cccc(O)c1 [resorcinol]

>  <unit string>
%

>  <cell viability>
103

$$$$
>  <molecule>
CCC1(c2ccccc2)C(=O)N(COC)C(=O)N(COC)C1=O [eterobarb]

>  <unit string>
%

>  <cell viability>
102

$$$$
>  <molecule>
COC(=O)CCc1ccc(OCC(O)CNC(C)C)cc1 (centres undefined) [esmolol]

>  <unit string>
%

>  <cell viability>
102

$$$$
>  <molecule>
CN1[C@H]2C[C@H](OC(=O)[C@H](CO)c3ccccc3)C[C@@H]1[C@@H](O)C2 [anisodamine]

>  <unit string>
%

>  <cell viability>
107

$$$$
>  <molecule>
O=C(OCCN1CCOCC1)c1cccnc1Nc1cccc(C(F)(F)F)c1 [morniflumate]

>  <unit string>
%

>  <cell viability>
120

$$$$

Entry Cc1ccccc1N(C)C(=O)c1ccc([S+]([O-])c2nccs2)c([N+](=O)[O-])c1 (centres undefined) : reported cell viability = ?
96.9

And then O=C(Oc1ccc(Br)cc1)N1CCN2CCC1CC2 , what is it?
101

And then C[C@]12CCC(=O)C=C1CC[C@@H]1[C@@H]2CC[C@@]2(C)[C@H]1CC[C@]2(C)O [17-alpha-Methyltestosterone] , what is it?
99.2

And then CC(=O)c1cc([N+](=O)[O-])c(Sc2ccc(F)cc2F)s1 , what is it?
98

And then C[C@@H]([C@@H](O)c1ccc(O)cc1)N1CCC(O)(c2ccccc2)CC1 [traxoprodil] , what is it?
100

And then N#Cc1cc(F)cc(-c2nc(-c3ccc(F)cn3)no2)c1 [AZD9272] , what is it?
96.7

And then O=C(Nc1c[nH]nc1-c1nc2ccc(CN3CCOCC3)cc2[nH]1)NC1CC1 [AT-9283] , what is it?
87.1

And then CC(CN(C)C)CN1c2ccccc2CCc2ccccc21 (centres undefined) [trimipramine] , what is it?
95.6

And then Cc1nc(NC(=O)N2CCC[C@H]2C(N)=O)sc1-c1csc(C(C)(C)C)n1 [A66] , what is it?
98.5

And then C#C[C@]1(OC(C)=O)CC[C@H]2[C@@H]3CCC4=CC(=O)CC[C@@H]4[C@H]3CC[C@@]21C [norethindrone-acetate] , what is it?
91.8

And then C[C@]12CCC(=O)C=C1C=C[C@@H]1[C@@H]2CC[C@@]2(C)[C@H]1CC[C@@]2(O)CCC(=O)O [potassium-canrenoate] , what is it?
93.8
